- assayed-system: T1, active heparanase (H53), heterodimer of the 8 kDa and 45 kDa subunits (human, UniProt Q9Y251 36-109; Q9Y251 158-543)
- T1 sequence 1: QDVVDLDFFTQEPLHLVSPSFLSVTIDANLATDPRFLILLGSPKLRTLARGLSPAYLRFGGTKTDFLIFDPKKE
- T1 sequence 2: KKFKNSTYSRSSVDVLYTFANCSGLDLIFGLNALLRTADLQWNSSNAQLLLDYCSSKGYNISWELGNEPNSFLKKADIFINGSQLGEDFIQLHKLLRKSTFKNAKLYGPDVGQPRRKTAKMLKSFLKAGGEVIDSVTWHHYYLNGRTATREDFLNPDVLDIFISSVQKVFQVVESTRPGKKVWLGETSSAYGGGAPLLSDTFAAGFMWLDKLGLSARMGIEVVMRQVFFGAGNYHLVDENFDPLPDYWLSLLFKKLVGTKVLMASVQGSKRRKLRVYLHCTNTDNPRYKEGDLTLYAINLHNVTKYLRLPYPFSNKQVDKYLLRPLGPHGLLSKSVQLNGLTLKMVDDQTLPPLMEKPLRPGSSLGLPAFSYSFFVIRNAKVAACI
- assay-procedure: cell-based or functional assay
recorded-endpoint: IC50 H53 (µM)

a = PRFLILL [P8-11]
b = PRFLILLGSPKLR [P8-4]
Hey, which is lower on measured IC50 H53, a or b ? Please identify the chosen entry by its label.
a
(a: 1.4 µM, b: 2.3 µM)
